These data points were gathered from PubChem BioAssay AID1963983.

Field: viability, T/C. Provide a value for each of the compounds that follow.
Test system: 186277-243-T-J2-PDC multi-cell spheroid viability
Assay: Anticancer human tumor 186277-243-T-J2-PDC patient-derived colon adenocarcinoma cell line growth inhibition [PI3K]
Details: second compound 0.00316 µM; first compound 10 µM; stronger effect = lower value
# value in %; strip the unit string

q: Item CC(C)NCC(C(=O)N1CCN(c2ncnc3c2C(C)CC3O)CC1)c1ccc(Cl)cc1 (stereo not drawn) + COc1c(OCCCN2CCOCC2)ccc2c3n(c(=NC(=O)c4cnc(N)nc4)nc12)CCN3 has what recorded viability, T/C?
a: 20.5

q: Item C[C@@H](NC(=O)c1ncnc(N)c1Cl)c1ncc(C(=O)Nc2cc(C(F)(F)F)c(Cl)cn2)s1 + CC(Nc1ccc2c(c1)OCCn1cc(N3C(=O)OCC3C(F)F)nc1-2)C(N)=O has what recorded viability, T/C?
a: 75.8

q: Item Cn1ncc(Cl)c1-c1cc(C(=O)NC(CN)Cc2cccc(F)c2)sc1Cl (stereo not drawn) + COc1c(OCCCN2CCOCC2)ccc2c3n(c(=NC(=O)c4cnc(N)nc4)nc12)CCN3 has what recorded viability, T/C?
a: 9.36

###

Test system: 186277-243-T-J2-PDC multi-cell spheroid viability
Experiment: Anticancer human tumor 186277-243-T-J2-PDC cell line growth inhibition [PI3K];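 note: spheroids exposed to compounds for seven days before viability reading; 100% = DMSO vehicle control viability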
Conditions: second compound 0.0316 µM; first compound 0.316 µM; stronger effect = lower value
Excerpt: Combinatorial screen of targeted agents with the PI3K inhibitors inavolisib, alpelisib, duvelisib, and copanlisib in multi-cell type tumor spheroids A high-throughput screen of multi-cell type tumor spheroids was designed to identify active combinations of targeted small molecules and PI3K pathway inhibitors. […] Compounds. […] If the clinical Cmax for an agent had not been determined, the highest concentration tested was 10 microM. […]
So basically, if viability, T/C comes in under 80% it's T, and if it's 80% or more it's F.

q: Say whether its viability, T/C is strictly beneath 80%. Entry: C#Cc1c(F)ccc2cc(O)cc(-c3ncc4c(N5CC6CCC(C5)N6)nc(OCC56CCCN5CC(F)C6)nc4c3F)c12 (stereo not given) + Cc1nc(NC(=O)N2CCCC2C(N)=O)sc1-c1ccnc(C(C)(C)C(F)(F)F)c1
a: T

q: Say whether its viability, T/C is strictly beneath 80%. Entry: CCCS(=O)(=O)Nc1ccc(F)c(C(=O)c2c[nH]c3ncc(-c4ccc(Cl)cc4)cc23)c1F + CC(Nc1ccc2c(c1)OCCn1cc(N3C(=O)OCC3C(F)F)nc1-2)C(N)=O
a: F

q: Say whether its viability, T/C is strictly beneath 80%. Entry: C=CC(=O)N1CCN(c2nc(=O)n(-c3c(C)ccnc3C(C)C)c3nc(-c4c(O)cccc4F)c(F)cc23)C(C)C1 (stereo not given) + CC(Nc1ccc2c(c1)OCCn1cc(N3C(=O)OCC3C(F)F)nc1-2)C(N)=O
a: F

q: Say whether its viability, T/C is strictly beneath 80%. Entry: Cn1nccc1Nc1nccc(-c2ccn(C(CO)c3ccc(Cl)c(F)c3)c(=O)c2)n1 (stereo not given) + CC(Nc1ccc2c(c1)OCCn1cc(N3C(=O)OCC3C(F)F)nc1-2)C(N)=O
a: F

###

System: 186277-243-T-J2-PDC multi-cell spheroid viability
Assay: Anticancer human tumor 186277-243-T-J2-PDC cell line growth inhibition [PI3K];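 note: spheroids exposed to compounds for seven days before viability reading; 100% = DMSO vehicle control viability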
Settings: compound 0.1 µM; stronger effect = lower value
Experimental Endpoint: viability, T/C

q: Provide the documented viability, T/C with 186277-243-T-J2-PDC multi-cell spheroid viability as the system for `COc1c(OCCCN2CCOCC2)ccc2c3n(c(=NC(=O)c4cnc(N)nc4)nc12)CCN3`
a: 16.7% [middle of 8 runs]

q: Provide the documented viability, T/C with 186277-243-T-J2-PDC multi-cell spheroid viability as the system for `CCCS(=O)(=O)Nc1ccc(F)c(C(=O)c2c[nH]c3ncc(-c4ccc(Cl)cc4)cc23)c1F`
a: 89.2% [middle of 4 runs]

q: Provide the documented viability, T/C with 186277-243-T-J2-PDC multi-cell spheroid viability as the system for C#Cc1c(F)ccc2cc(O)cc(-c3ncc4c(N5CC6CCC(C5)N6)nc(OCC56CCCN5CC(F)C6)nc4c3F)c12 (stereo unspecified)
a: 40.8% [middle of 4 runs]

q: Provide the documented viability, T/C with 186277-243-T-J2-PDC multi-cell spheroid viability as the system for C=CC(=O)N1CCN(c2nc(=O)n(-c3c(C)ccnc3C(C)C)c3nc(-c4c(O)cccc4F)c(F)cc23)C(C)C1 (stereo unspecified)
a: 92.8% [middle of 4 runs]

q: Provide the documented viability, T/C with 186277-243-T-J2-PDC multi-cell spheroid viability as the system for `C[C@@H](NC(=O)c1ncnc(N)c1Cl)c1ncc(C(=O)Nc2cc(C(F)(F)F)c(Cl)cn2)s1`
a: 92.9% [middle of 4 runs]

q: Provide the documented viability, T/C with 186277-243-T-J2-PDC multi-cell spheroid viability as the system for CC(Nc1ccc2c(c1)OCCn1cc(N3C(=O)OCC3C(F)F)nc1-2)C(N)=O (stereo unspecified)
a: 98% [middle of 8 runs]

q: Provide the documented viability, T/C with 186277-243-T-J2-PDC multi-cell spheroid viability as the system for `CC1(C)CCC(CN2CCN(c3ccc(C(=O)NS(=O)(=O)c4ccc(NCC5CCOCC5)c([N+](=O)[O-])c4)c(Oc4cnc5[nH]ccc5c4)c3)CC2)=C(c2ccc(Cl)cc2)C1`
a: 105% [middle of 4 runs]

q: Provide the documented viability, T/C with 186277-243-T-J2-PDC multi-cell spheroid viability as the system for CC(C)NCC(C(=O)N1CCN(c2ncnc3c2C(C)CC3O)CC1)c1ccc(Cl)cc1 (stereo unspecified)
a: 88.2% [middle of 4 runs]

q: Provide the documented viability, T/C with 186277-243-T-J2-PDC multi-cell spheroid viability as the system for `CCN1CCN(Cc2ccc(Nc3ncc(F)c(-c4cc(F)c5nc(C)n(C(C)C)c5c4)n3)nc2)CC1`
a: 130% [middle of 4 runs]

q: Provide the documented viability, T/C with 186277-243-T-J2-PDC multi-cell spheroid viability as the system for `CNC(=O)c1ccc(N2C(=S)N(c3ccc(C#N)c(C(F)(F)F)c3)C(=O)C2(C)C)cc1F`
a: 93.1% [middle of 4 runs]

q: Provide the documented viability, T/C with 186277-243-T-J2-PDC multi-cell spheroid viability as the system for `Cn1ncnc1[C@H]1c2n[nH]c(=O)c3cc(F)cc(c23)N[C@@H]1c1ccc(F)cc1`
a: 93.6% [middle of 4 runs]

q: Provide the documented viability, T/C with 186277-243-T-J2-PDC multi-cell spheroid viability as the system for Cc1nc(NC(=O)N2CCCC2C(N)=O)sc1-c1ccnc(C(C)(C)C(F)(F)F)c1 (stereo unspecified)
a: 104% [middle of 8 runs]

q: Provide the documented viability, T/C with 186277-243-T-J2-PDC multi-cell spheroid viability as the system for CC(Cn1ccc(-c2ccc(C#N)c(Cl)c2)n1)NC(=O)c1cc(C(C)O)[nH]n1 (stereo unspecified)
a: 99% [middle of 4 runs]

q: Provide the documented viability, T/C with 186277-243-T-J2-PDC multi-cell spheroid viability as the system for CC1(C)CCC(Nc2ncc(C(F)(F)F)c(-c3c[nH]c4c(P(C)(C)=O)c(C#N)ccc34)n2)CN1 (stereo unspecified)
a: 55.2% [middle of 4 runs]

q: Provide the documented viability, T/C with 186277-243-T-J2-PDC multi-cell spheroid viability as the system for Cn1ncc(Cl)c1-c1cc(C(=O)NC(CN)Cc2cccc(F)c2)sc1Cl (stereo unspecified)
a: 85% [middle of 4 runs]

q: Provide the documented viability, T/C with 186277-243-T-J2-PDC multi-cell spheroid viability as the system for CC(Nc1ncnc2nc[nH]c12)c1cc2cccc(Cl)c2c(=O)n1-c1ccccc1 (stereo unspecified)
a: 102% [middle of 8 runs]

###

System: 186277-243-T-J2-PDC multi-cell spheroid viability
Test: Anticancer human tumor 186277-243-T-J2-PDC cell line growth inhibition [PI3K];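 note: spheroids exposed to compounds for seven days before viability reading; 100% = DMSO vehicle control viability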
Conditions: second compound 0.316 µM; first compound 10 µM; stronger effect = lower value
Field: viability, T/C. Provide a value for each of the molecules that follow.
# value in %; strip the unit string

q: Item C[C@@H](NC(=O)c1ncnc(N)c1Cl)c1ncc(C(=O)Nc2cc(C(F)(F)F)c(Cl)cn2)s1 + CC(Nc1ccc2c(c1)OCCn1cc(N3C(=O)OCC3C(F)F)nc1-2)C(N)=O has what recorded viability, T/C?
a: 12.8

q: Item CC1(C)CCC(Nc2ncc(C(F)(F)F)c(-c3c[nH]c4c(P(C)(C)=O)c(C#N)ccc34)n2)CN1 (stereo not drawn) + CC(Nc1ccc2c(c1)OCCn1cc(N3C(=O)OCC3C(F)F)nc1-2)C(N)=O has what recorded viability, T/C?
a: 0.44

q: Item Cn1nccc1Nc1nccc(-c2ccn(C(CO)c3ccc(Cl)c(F)c3)c(=O)c2)n1 (stereo not drawn) + CC(Nc1ccc2c(c1)OCCn1cc(N3C(=O)OCC3C(F)F)nc1-2)C(N)=O has what recorded viability, T/C?
a: 4.2
